test_method_notes: Antioxidant activity assessed as trolox equivalent of APPH radical scavenging activity preincubated for 30 mins followed by APPH addition measured after 90 mins by hydrophilic-ORAC fluorescence assay
Format: physicochemical
protocol_conditions: 1.5 h
metric: Activity (mmolequiv/mmol)
One number for each entry, in mmolequiv/mmol.

Record excerpt, results attached:
O=c1c2cc(O)ccc2oc2cccc(O)c12
2.43
O=C1c2c(O)cc(O)c([C@@H]3C(=O)c4c(O)cc(O)cc4O[C@H]3c3ccc(O)c(O)c3)c2O[C@H](c2ccc(O)c(O)c2)[C@H]1O
13.73
CC(C)=CCc1c(O)cc2oc3c(O)c(O)ccc3c(=O)c2c1O
1.06
O=C1O[C@H]([C@@H](O)CO)C(O)=C1O [ASCORBIC ACID]
0.62
C=C(C)[C@@H](CC=C(C)C)C[C@@]12C[C@@H](CC=C(C)C)C(C)(C)[C@@](CC=C(C)C)(C(=O)C(C(=O)c3ccc(O)c(O)c3)=C1O)C2=O [GARCINOL]
1.28
COc1c(O)ccc2c1Oc1cc(O)c(CC=C(C)C)c(O)c1C(=O)O2
2.5
CC1(C)C=Cc2c(cc3oc4c(O)c(O)ccc4c(=O)c3c2O)O1 [JACAREUBIN]
1.16
O=c1c(O)c(-c2ccc(O)c(O)c2)oc2cc(O)cc(O)c12 [QUERCETIN]
9.36

Can you give me Activity for all of these, one by one?
1. O=C1CC(c2ccc(O)cc2)Oc2cc(O)cc(O)c21 (racemic)
2. COc1cc(C(=O)c2c(O)cc3c(c2OC)C=CC(C)(C)O3)ccc1O
3. O=C1c2c(cc(O)c([C@@H]3C(=O)c4c(O)cc(O)cc4O[C@H]3c3ccc(O)c(O)c3)c2O)O[C@H](c2ccc(O)c(O)c2)[C@H]1O
4. Oc1cc(O)c2c(c1)O[C@H](c1ccc(O)c(O)c1)[C@H](O)C2 [(-)-EPICATECHIN]

1: 6.2; 2: 2.44; 3: 7.54; 4: 9.98

Can you give me Activity for all of these, one by one?
1. O=C1c2c(O)cc(O)c(-c3coc4cc(O)cc(O)c4c3=O)c2O[C@H](c2ccc(O)c(O)c2)[C@H]1O
2. CC(C)=CC[C@H]1C[C@@]23C[C@@H](CC=C(C)C)C(C)(C)[C@@](CC=C(C)C)(C(=O)C(C(=O)c4ccc(O)c(O)c4)=C2OC1(C)C)C3=O [CAMBOGIN]
3. O=C1c2c(O)cc(O)cc2O[C@H](c2ccc(O)c(O)c2)C1O (single isomer, unassigned) [(+)-TAXIFOLIN]

1: 4.38; 2: 0.6; 3: 6.61

Recorded values, source ChEMBL document CHEMBL3421535.
